The values you see were collected from ChEMBL document CHEMBL4342485.

- procedure.summary: Clearance in rat plasma at 1 mg/kg, iv or po
- Type: ADME, organism-based
measured.quantity: clearance

# compound.smiles, endpoint.value
measured = [
    ("CC(C)(O)[C@H](F)CN1Cc2cc(NC(=O)c3cnn4cccnc34)c(N3CCOCC3)cc2C1=O", "9.2 mL/min/kg"),
]

###

- procedure.summary: Clearance in dog plasma at 1 mg/kg, iv or po
- Type: ADME, organism-based, Canis lupus familiaris

# compound.smiles, clearance
measured = [
    ("CC(C)(O)[C@H](F)CN1Cc2cc(NC(=O)c3cnn4cccnc34)c(N3CCOCC3)cc2C1=O", "11.3 mL/min/kg"),
]
